Origin of values: PubChem BioAssay

experimental protocol: human hepatoma cell viability loss – ATP luminescence, cytotoxicity control for P. falciparum antimalarial project, primary screen (AID 2303);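 further: 0% = DMSO wells and 100% = digitonin-killed cells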
test parameters: HepG2 viability, 24-48 h, at 10 µM, active compounds read high
Calls of active or inactive are those of the source.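 How the source made its calls: active means inhibition above 50%; inactive means the rest.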
// reported inhibition for each item listed

Some solved entries appear below for comparison.
[
  {
    "molecule": "O=C(Nc1ccccc1)N(Cc1ccccc1-c1cccc(CNCCc2ccccc2)c1)C1CCN(Cc2ccccc2)CC1",
    "inhibition": "95% (active)"
  },
  {
    "molecule": "Nc1nc(N)c2c(ccc3c2cnn3S(=O)(=O)N2CCCC2)n1",
    "inhibition": "70% (active)"
  },
  {
    "molecule": "O=C(Nc1ccc(C(F)(F)F)cc1)N[C@H]1CCN(CCCCCNC(=O)[C@@H]2C[C@H]2c2ccc(Cl)c(Cl)c2)C1",
    "inhibition": "41% (inactive)"
  },
  {
    "molecule": "Oc1cc2c(cc1CN1CCN(Cc3ccccc3F)CC1)CCC2",
    "inhibition": "2% (inactive)"
  }
]

Qu. Query: inhibition; subject: `O=C(NCc1cccc(F)c1)Nc1ccc(-c2cccc(-c3nc4ccc(F)cc4[nH]3)c2)cc1`
Ans. 31% (inactive)

Qu. Query: inhibition; subject: CCCCNCc1ccc(-c2nc(CN(CCCn3ccnc3)C(=O)C3COc4ccccc4O3)cs2)cc1 (stereo not drawn)
Ans. 6% (inactive)

Qu. Query: inhibition; subject: `c1ccc2oc(-c3cc4ccncc4cc3OC3CCNCC3)cc2c1`
Ans. 11% (inactive)

Qu. Query: inhibition; subject: `COc1cc(NC(=O)Nc2ccnc3ccccc23)cc(OC)c1`
Ans. 11% (inactive)

Qu. Query: inhibition; subject: O=C(c1ccc(-c2ccc(-c3nc4ccccc4[nH]3)s2)cc1)N1CCCCC1CN1CCC(O)C1 (stereo not drawn)
Ans. 18% (inactive)

Qu. Query: inhibition; subject: O=C(Nc1ccc(OC2CCN(Cc3ccc(F)cc3)C2)c(Cl)c1)c1ccccc1 (stereo not drawn)
Ans. 11% (inactive)

Qu. Query: inhibition; subject: `Oc1ccccc1Nc1nc(NCc2ccco2)c2ccccc2n1`
Ans. 0% (inactive)

Qu. Query: inhibition; subject: `Cc1ccc(C(=O)Nc2cccc(CN3CCCN(Cc4ccc(O)cc4)CC3)c2)s1`
Ans. 17% (inactive)

Qu. Query: inhibition; subject: `CCc1ccc(-n2c(=O)c3cccnc3n2CC(=O)NC2CCCC2)cc1`
Ans. -1% (inactive)

Qu. Query: inhibition; subject: `Cc1cccc2[nH]c(-c3ccc(-c4cccc(NC(=O)CCc5cnc[nH]5)c4)s3)nc12`
Ans. 2% (inactive)

Qu. Query: inhibition; subject: `CCN1CCN(c2cc(C)c3cc(NC(=O)c4cccc(Cl)c4)ccc3n2)CC1`
Ans. 4% (inactive)
